- system: Cyclin-dependent kinase 14 (Homo sapiens, UniProt O94921)
- Sequence (O94921 whole entry): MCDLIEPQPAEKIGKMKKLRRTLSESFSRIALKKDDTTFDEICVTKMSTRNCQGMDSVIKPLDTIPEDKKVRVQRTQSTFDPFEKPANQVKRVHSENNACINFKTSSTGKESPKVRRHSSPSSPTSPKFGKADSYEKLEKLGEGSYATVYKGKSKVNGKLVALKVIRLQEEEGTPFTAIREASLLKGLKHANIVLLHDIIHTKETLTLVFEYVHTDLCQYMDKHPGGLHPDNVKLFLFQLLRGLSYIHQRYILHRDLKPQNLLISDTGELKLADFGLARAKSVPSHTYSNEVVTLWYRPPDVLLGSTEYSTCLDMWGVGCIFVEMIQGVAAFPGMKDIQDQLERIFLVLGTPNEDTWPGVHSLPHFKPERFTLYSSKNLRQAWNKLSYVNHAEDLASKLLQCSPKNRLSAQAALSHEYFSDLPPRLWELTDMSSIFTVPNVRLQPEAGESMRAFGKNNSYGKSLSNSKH
metric: pIC50
Scale note: pIC50 = -log10(concentration in M).

Recorded pIC50 for CN(C)C/C=C/C(=O)Nc1cccc(CNC(=O)c2n[nH]cc2NC(=O)c2c(Cl)cccc2Cl)c1 , please? 6.97
